assay target: human bradykinin 1 receptor (B1R) (Homo sapiens, UniProt P46663)
Construct: expressed in transfected cells; host or cells: CHO K1 cells
Sequence (P46663 1-353): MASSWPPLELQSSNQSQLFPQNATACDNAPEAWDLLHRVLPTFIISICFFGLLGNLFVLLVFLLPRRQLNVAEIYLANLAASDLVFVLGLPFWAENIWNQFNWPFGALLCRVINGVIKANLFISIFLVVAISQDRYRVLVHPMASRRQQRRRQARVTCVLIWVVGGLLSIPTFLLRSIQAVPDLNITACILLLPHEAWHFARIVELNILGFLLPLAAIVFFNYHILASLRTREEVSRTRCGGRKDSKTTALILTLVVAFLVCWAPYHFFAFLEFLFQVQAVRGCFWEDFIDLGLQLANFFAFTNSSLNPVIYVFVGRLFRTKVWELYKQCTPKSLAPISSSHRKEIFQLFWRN
method notes: Functional investigation on the human bradykinin 1 receptor (B1R), Ca2+ FLIPR assay in CHO K1 hB1R cells
Assay type: cell-based
cond: CHO-K1, B1R antagonism human; test substance 10 μM; Ca2+ FLIPR, CHO K1 hB1R cells; read-out: B1R Ant. h [10 μM] % Inhibition
readout kind: inhibition at 10 µM (%)
Express the result in % but write the number alone.

Some entries whose results are on file:
{"compound": "O=C(COCC1CCCN1S(=O)(=O)c1c(Cl)cc(Cl)cc1Cl)NC1CCC(C(c2ccccc2)N2CCCC2)CC1 (stereo not shown)", "readout kind": "inhibition at 10 µM", "endpoint value": 96}
{"compound": "COc1ccc(S(=O)(=O)N2CCC(OCC(=O)NCC3CCC(C(c4cccs4)N(C)C)CC3)C2)cc1OC (stereo not shown)", "readout kind": "inhibition at 10 µM", "endpoint value": -25}
{"compound": "CN(C)C(c1cccc(F)c1)C1CCC(CCNC(=O)COCCN(C)S(=O)(=O)c2ccc(Cl)cc2)CC1 (stereo not shown)", "readout kind": "inhibition at 10 µM", "endpoint value": 23}

Form field inhibition at 10 µM, entry CN(C)C(CCc1ccccc1)C1CCC(NC(=O)CNC(=O)c2nc(-c3ccc4c(c3)OCO4)no2)CC1 (stereo not shown) : 45

Form field inhibition at 10 µM, entry CN(C)C(c1cccc(F)c1)C1CCC(NC(=O)COC2CCCCC2N(C)S(=O)(=O)c2ccc(Cl)c(Cl)c2)CC1 (stereo not shown) : 40

Form field inhibition at 10 µM, entry CN(C)C(c1ccccc1)C1CCC(CNC(=O)COC2CCN(S(=O)(=O)c3cccc(C(F)(F)F)c3)C2)CC1 (stereo not shown) : -1

Form field inhibition at 10 µM, entry COc1ccc(S(=O)(=O)N2CCCCC2COCC(=O)NC2CCC(C(c3ccccc3)N(C)C)CC2)cc1OC (stereo not shown) : -12

---

assay target: human bradykinin 1 receptor (B1R) (Homo sapiens, UniProt P46663)
Construct: expressed in transfected cells; host or cells: CHO K1 cells
method notes: Functional investigation on the human bradykinin 1 receptor (B1R), Ca2+ FLIPR assay in CHO K1 hB1R cells
Format: cell-based
cond: B1R antagonism human; test substance 10 μM; Ca2+ FLIPR, CHO K1 hB1R cells
Note to self: B1R Ant. h [10 μM] % Inhibition under 7% means True, ties and anything higher get False.

Does COc1cc(C)c(S(=O)(=O)N2CCC(CCOCC(=O)NCC3CCC(C(c4ccc(F)cc4)N(C)C)CC3)CC2)c(C)c1C (stereo not drawn) have B1R Ant. h [10 μM] % Inhibition strictly under 7%?
False

Does CN(C)C(c1ccc(F)cc1)C1CCC(CCNC(=O)COCCC2CCN(S(=O)(=O)c3ccccc3)CC2)CC1 (stereo not drawn) have B1R Ant. h [10 μM] % Inhibition strictly under 7%?
True

Does Cc1ccc(S(=O)(=O)N(C)CCOCC(=O)NCC2CCC(C(CCc3ccccc3)N(C)C)CC2)cc1 (stereo not drawn) have B1R Ant. h [10 μM] % Inhibition strictly under 7%?
False

Does COc1cc(C)c(S(=O)(=O)N(C)CCOCC(=O)NCC2CCC(C(CCc3ccccc3)N(C)C)CC2)c(C)c1 (stereo not drawn) have B1R Ant. h [10 μM] % Inhibition strictly under 7%?
False

---

assay target: serotonin (5-HT) reuptake (Rattus norvegicus, UniProt P31652)
Construct: synaptosomes are freshly isolated from areas of the rat brain; from tissue; host or cells: rat brain synaptosomes (P2 fraction)
Sequence (P31652 whole entry): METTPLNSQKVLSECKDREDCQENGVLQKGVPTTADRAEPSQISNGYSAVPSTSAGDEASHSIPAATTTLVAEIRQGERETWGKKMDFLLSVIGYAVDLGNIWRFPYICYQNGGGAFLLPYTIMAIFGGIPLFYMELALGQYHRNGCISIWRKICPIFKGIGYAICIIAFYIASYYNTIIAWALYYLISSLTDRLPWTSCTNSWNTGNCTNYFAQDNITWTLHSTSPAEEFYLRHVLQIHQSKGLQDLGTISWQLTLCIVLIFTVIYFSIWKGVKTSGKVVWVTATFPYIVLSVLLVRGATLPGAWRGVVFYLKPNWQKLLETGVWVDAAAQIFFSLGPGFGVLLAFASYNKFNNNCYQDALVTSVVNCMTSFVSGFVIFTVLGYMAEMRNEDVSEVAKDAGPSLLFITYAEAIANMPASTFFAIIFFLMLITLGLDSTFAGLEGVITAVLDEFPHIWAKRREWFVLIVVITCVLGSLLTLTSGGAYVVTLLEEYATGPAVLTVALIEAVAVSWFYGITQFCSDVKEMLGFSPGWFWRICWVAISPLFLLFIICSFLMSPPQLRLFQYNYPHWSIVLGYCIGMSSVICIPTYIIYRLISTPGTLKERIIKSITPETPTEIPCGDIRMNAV
method notes: Inhibition of serotonin (5HT) reuptake in synaptosomes from rat brain
Assay type: biochemical
cond: test concentration of 10 μM; read-out: 5-HT (inhibition of reuptake of serotonin, % inhibition)
readout kind: inhibition at 10 µM (%)
Express the result in % but write the number alone.

Some entries whose results are on file:
{"compound": "COc1ccc(S(=O)(=O)N2Cc3ccccc3CC2COCC(=O)NCC2CCC(C(c3ccccc3)N(C)C)CC2)cc1 (stereo not drawn)", "readout kind": "inhibition at 10 µM", "endpoint value": 92}
{"compound": "CN(C)C(c1ccccc1)C1CCC(NC(=O)COc2ccccc2N(C)S(=O)(=O)c2ccc(Cl)c(Cl)c2)CC1 (stereo not drawn)", "readout kind": "inhibition at 10 µM", "endpoint value": 91}

// moving on: another record for inhibition at 10 µM
Measured inhibition at 10 µM for this entry CN(C)C(c1cccc(F)c1)C1CCC(CNC(=O)COC2CCN(S(=O)(=O)c3cccc(C(F)(F)F)c3)C2)CC1 (stereo not drawn) on serotonin (5-HT) reuptake (Rattus norvegicus, UniProt P31652): 89

---

assay target: bradykinin 1 receptor (B1R) of the rat (Rattus norvegicus, UniProt P97583)
Construct: expressed in transfected cells; host or cells: CHO K1 cells
Sequence (P97583 whole entry): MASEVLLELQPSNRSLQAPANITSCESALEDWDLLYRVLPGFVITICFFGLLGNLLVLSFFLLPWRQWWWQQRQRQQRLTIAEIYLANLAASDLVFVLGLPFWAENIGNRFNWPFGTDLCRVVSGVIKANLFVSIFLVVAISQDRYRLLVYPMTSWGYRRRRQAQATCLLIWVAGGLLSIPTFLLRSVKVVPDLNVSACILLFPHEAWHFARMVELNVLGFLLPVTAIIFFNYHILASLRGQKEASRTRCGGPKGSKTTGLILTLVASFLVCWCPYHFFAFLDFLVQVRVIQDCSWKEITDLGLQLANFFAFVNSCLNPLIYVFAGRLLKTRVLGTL
method notes: Functional investigation on the rat bradykinin 1 receptor (B1R), Ca2+ FLIPR assay in CHO K1 rB1R cells
Assay type: cell-based
cond: CHO-K1, B1R antagonism rat; test substance 10 μM; Ca2+ FLIPR, CHO K1 rB1R cells; read-out: B1R Ant. r [10 μM] % Inhibition
Assign 1 to entries whose inhibition at 10 µM meets or exceeds 30%; assign -1 to the rest.

{"compound": "COc1ccccc1-c1noc(C(=O)NCC(=O)NCC2CCC(C(c3cccc(F)c3)N(C)C)CC2)n1 (stereo not drawn) [Example 787]", "assigned label": -1}
{"compound": "O=C(COC1CCCN(S(=O)(=O)c2c(Cl)cc(Cl)cc2Cl)C1)NCC1CCC(C(CCc2ccccc2)N2CCOCC2)CC1 (stereo not drawn) [Example 747]", "assigned label": 1}
{"compound": "CN(C)C(c1ccccc1)C1CCC(CNC(=O)COCCN(C)S(=O)(=O)c2cccc(C(F)(F)F)c2)CC1 (stereo not drawn) [Example 91]", "assigned label": 1}

Dear colleague, could you confirm whether CN(C)C(c1ccccc1)C1CCC(NC(=O)CCNC(=O)c2nc(-c3ccc(Cl)cc3Cl)no2)CC1 (stereo not drawn) [Example 773] has inhibition at 10 µM at or above 30%?
-1

Dear colleague, could you confirm whether COc1cc(C)c(S(=O)(=O)N2CCCC(OCC(=O)NC3CCC(C(c4ccccc4)N4CCN(C)CC4)CC3)C2)c(C)c1 (stereo not drawn) [Example 708] has inhibition at 10 µM at or above 30%?
1

Dear colleague, could you confirm whether Cc1ccc(S(=O)(=O)N2CCC(OCC(=O)NCC3CCC(C(c4cccc(F)c4)N(C)C)CC3)C2)cc1 (stereo not drawn) [Example 185] has inhibition at 10 µM at or above 30%?
-1

---

assay target: bradykinin 1 receptor (B1R) of the rat (Rattus norvegicus, UniProt P97583)
Construct: expressed in transfected cells; host or cells: CHO K1 cells
method notes: Functional investigation on the rat bradykinin 1 receptor (B1R), Ca2+ FLIPR assay in CHO K1 rB1R cells
Type: cell-based
cond: CHO-K1, B1R antagonism rat; test substance 10 μM; Ca2+ FLIPR, CHO K1 rB1R cells; read-out: B1R Ant. r [10 μM] % Inhibition
Property: inhibition at 10 µM; scope: individual compounds
Express the result in % but write the number alone.

Some entries whose results are on file:
{"compound": "CN(C)C(c1ccccc1)C1CCC(NC(=O)CNC(=O)c2nc(CS(=O)(=O)c3ccccc3)no2)CC1 (stereo not shown)", "inhibition at 10 µM [%]": 39}
{"compound": "COc1cc(C)c(S(=O)(=O)N2CCC(OCC(=O)NCCC3CCC(C(c4cccs4)N(C)C)CC3)CC2)c(C)c1C (stereo not shown)", "inhibition at 10 µM [%]": 45}
{"compound": "O=C(COCC1CCCN1S(=O)(=O)c1c(Cl)cc(Cl)cc1Cl)NC1CCC(C(c2ccccc2)N2CCCC2)CC1 (stereo not shown)", "inhibition at 10 µM [%]": 99}

Form field inhibition at 10 µM, entry COc1cc(C)c(S(=O)(=O)N2CCCC(COCC(=O)NC3CCC(C(c4ccccc4)N4CCOCC4)CC3)C2)c(C)c1 (stereo not shown) : 49

Form field inhibition at 10 µM, entry COc1cc(C)c(S(=O)(=O)N2CCC(OCC(=O)NCC3CCC(C(CCc4ccccc4)N4CCOCC4)CC3)C2)c(C)c1 (stereo not shown) : 63

Form field inhibition at 10 µM, entry Cc1ccc(S(=O)(=O)N2CCC(OCC(=O)NC3CCC(C(c4cccc(F)c4)N(C)C)CC3)C2)cc1 (stereo not shown) : 40

Form field inhibition at 10 µM, entry COc1ccc(S(=O)(=O)N2CCCCC2CCOCC(=O)NCC2CCC(C(c3ccccc3)N(C)C)CC2)cc1 (stereo not shown) : 50

Form field inhibition at 10 µM, entry COc1ccc(S(=O)(=O)N2Cc3ccccc3CC2COCC(=O)NC2CCC(C(c3ccccc3)N(C)C)CC2)cc1 (stereo not shown) : 46

Form field inhibition at 10 µM, entry COc1cc(C)c(S(=O)(=O)N(C)CCOCC(=O)NCC2CCC(C(c3ccccc3)N(C)C)CC2)c(C)c1C (stereo not shown) : 41
